These data points were gathered from ChEMBL document CHEMBL1961873.

- assayed.target: Cyclin-dependent kinase 2 (Homo sapiens);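 note: mean inhibition of CDK2 bound to cyclin A, from the GSK PKIS kinase inhibitor set screen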
- cond: at 0.1 µM
For each of the compounds below, state its inhibition.
Numbers only, in %.

Here's what some known entries look like.
COC(=O)c1sc(-n2cnc3cc(OC)c(OC)cc32)cc1OCc1ccccc1C(F)(F)F
1.51
CCn1c(-c2nonc2N)nc2ccccc21
1.31
CCn1c(-c2nonc2N)nc2c(C#CC(C)(C)O)nc(OC[C@H](N)c3ccccc3)cc21
3.52
NS(=O)(=O)c1ccc(N/N=C2\C(=O)Nc3ccc4ncccc4c32)cc1
93.4

Now consider the entry below.
Quick one: inhibition of COC(=O)Nc1nc2ccc(S(=O)(=O)c3ccc(NC(=O)Nc4cc(C(F)(F)F)ccc4F)cc3)cc2[nH]1 ?
1.37
